Numbers sourced from patent US11834467B2.

test system: human peripheral blood pan T cells; test: IFNγ and IL-2 secretion analysis of human peripheral pan T cells; format: cell-based; conditions: Homo sapiens, T-cell, 24 h, IFNγ secretion, CD3/CD28 stimulation, 100 nM Prostaglandin E2, 24 hr; read-out: IFNγ (EC50)
recorded-metric: EC50

compound="CN(c1c(F)c(Cl)c(-c2cn3cc(NC(=O)[C@@H]4C[C@@H]4F)nc3cn2)c2cn[nH]c12)C1CC1 [Example 58]" recorded_value="< 200 nM"
compound="CCOc1c(F)c(CC)c(-c2cn3cc(NC(=O)[C@@H]4C[C@@H]4F)nc3cn2)c2cn[nH]c12 [Example 44]" recorded_value="< 200 nM"
compound="CCOc1c(F)c(Cl)c(-c2cn3cc(NC(=O)[C@@H]4C[C@@H]4F)nc3cn2)c2cn[nH]c12 [Example 34]" recorded_value="< 200 nM"
compound="CCc1c(F)c(N(C)C)c2[nH]ncc2c1-c1cn2cc(NC(=O)[C@@H]3C[C@@H]3F)nc2cn1 [Example 26]" recorded_value="< 200 nM"
compound="CC(C)N(C)c1c(F)c(Cl)c(-c2cn3cc(NC(=O)[C@@H]4C[C@@H]4F)nc3cn2)c2cn[nH]c12 [Example 62]" recorded_value="< 200 nM"
compound="CSc1c(F)c(SC)c2[nH]ncc2c1-c1cn2cc(NC(=O)[C@@H]3C[C@@H]3F)nc2cn1 [Example 27]" recorded_value="< 200 nM"
compound="CCc1c(F)cc2[nH]ncc2c1-c1ccc2nc(NC(=O)[C@@H]3C[C@@H]3F)cn2n1 [Example 4]" recorded_value="< 200 nM"
compound="CCc1c(F)c(N(C)C)c2[nH]ncc2c1-c1ccc2nc(NC(=O)[C@@H]3C[C@@H]3F)cn2n1 [Example 7]" recorded_value="200 to 1000 nM"
compound="CSc1c(F)c(Cl)c(-c2cn3cc(NC(=O)[C@@H]4C[C@@H]4F)nc3cn2)c2cn[nH]c12 [Example 38]" recorded_value="200 to 1000 nM"
compound="CCN(C)c1c(F)c(Cl)c(-c2cn3cc(NC(=O)[C@@H]4C[C@@H]4F)nc3cn2)c2cn[nH]c12 [Example 41]" recorded_value="< 200 nM"
compound="CCN(C)c1c(F)c(C(F)(F)F)c(-c2cn3cc(NC(=O)[C@@H]4C[C@@H]4F)nc3cn2)c2cn[nH]c12 [Example 42]" recorded_value="< 200 nM"
compound="CC(C)Nc1c(F)c(Cl)c(-c2cn3cc(NC(=O)[C@@H]4C[C@@H]4F)nc3cn2)c2cn[nH]c12 [Example 61]" recorded_value="< 200 nM"
compound="CC(C)c1c(F)c(Cl)c(-c2cn3cc(NC(=O)[C@@H]4C[C@@H]4F)nc3cn2)c2cn[nH]c12 [Example 64]" recorded_value="< 200 nM"
compound="CCOc1c(F)c(CC)c(-c2ccc3nc(NC(=O)[C@@H]4C[C@@H]4F)cn3n2)c2cn[nH]c12 [Example 13]" recorded_value="200 to 1000 nM"
compound="CN(C)c1c(F)c(C(F)(F)F)c(-c2cn3cc(NC(=O)[C@@H]4C[C@@H]4F)nc3cn2)c2cn[nH]c12 [Example 40]" recorded_value="< 200 nM"
compound="CN(C)c1c(F)c(Cl)c(-c2cn3cc(NC(=O)[C@@H]4C[C@@H]4F)nc3cn2)c2cn[nH]c12 [Example 33]" recorded_value="< 200 nM"
